Where these numbers come from: patent US20210047278A1

Below, each of the compounds is paired with its reported Emax value.
- tgt: FBW7^ARG (RLFBW7) alone (Homo sapiens, UniProt Q969H0, R505L)
- Construct: GST (TEV site and flexible linker) (N, cleaved yes); made in house; host or cells: SF9 insect cells (baculovirus)
- Sequence (Q969H0 64-707 R505L): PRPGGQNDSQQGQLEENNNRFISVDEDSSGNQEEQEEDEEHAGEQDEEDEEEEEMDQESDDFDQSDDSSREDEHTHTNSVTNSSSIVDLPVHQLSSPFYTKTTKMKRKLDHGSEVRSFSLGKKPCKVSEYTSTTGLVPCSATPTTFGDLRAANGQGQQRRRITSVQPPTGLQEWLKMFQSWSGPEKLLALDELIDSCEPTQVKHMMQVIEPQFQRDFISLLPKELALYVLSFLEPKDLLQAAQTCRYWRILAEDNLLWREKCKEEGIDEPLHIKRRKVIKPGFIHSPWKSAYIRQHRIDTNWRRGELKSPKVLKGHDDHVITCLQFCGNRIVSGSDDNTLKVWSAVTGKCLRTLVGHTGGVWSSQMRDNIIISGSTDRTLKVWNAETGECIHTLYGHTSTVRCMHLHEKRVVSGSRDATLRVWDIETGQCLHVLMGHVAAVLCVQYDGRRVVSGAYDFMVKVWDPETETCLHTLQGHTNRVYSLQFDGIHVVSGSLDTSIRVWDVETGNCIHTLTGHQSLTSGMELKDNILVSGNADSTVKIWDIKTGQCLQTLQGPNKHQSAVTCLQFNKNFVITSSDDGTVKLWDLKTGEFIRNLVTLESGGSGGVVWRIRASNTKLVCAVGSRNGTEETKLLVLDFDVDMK
- Sequence (P63208 2-163 partner): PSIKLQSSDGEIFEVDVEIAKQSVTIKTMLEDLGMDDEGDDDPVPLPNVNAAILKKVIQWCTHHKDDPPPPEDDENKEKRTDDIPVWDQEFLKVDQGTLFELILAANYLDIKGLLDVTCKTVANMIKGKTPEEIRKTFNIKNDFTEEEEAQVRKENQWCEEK
- protocol details: Counterscreen 1 ALPHAscreen with FBW7^ARG alone (CSRUN1/DCSRUN1)
- Format: binding
- condition info: dose-response counterscreen, read-out: RLFBW7 ACT DCSRUN1 Averaged Max % Response
parameter: Emax (%)

- compound: "CN(C)CC[S+]([O-])c1cc(-c2cn[nH]c2)ccc1NC(=O)[C@@H]1Cc2cc(F)ccc2CN1.O=C(O)C(F)(F)F (stereo partly shown)"
  tgt: "FBW7^ARG (RLFBW7) alone (Homo sapiens, UniProt Q969H0, R505L)"
  parameter: "Emax"
  value reported: 0.77
- compound: "COc1ccc(C2CC(=O)C3=C(C2)NC(C)=C(C(=O)OC(C)C)C3c2ccccc2OC(C)C)cc1 (stereo not shown)"
  tgt: "FBW7^ARG (RLFBW7) alone (Homo sapiens, UniProt Q969H0, R505L)"
  parameter: "Emax"
  value reported: 1.86
- compound: "O=C(Nc1ccc2c(c1)OCO2)N1CCC(c2nnc(C3CC3)s2)CC1"
  tgt: "FBW7^ARG (RLFBW7) alone (Homo sapiens, UniProt Q969H0, R505L)"
  parameter: "Emax"
  value reported: 0.2
- compound: "COc1ccc(N2C(=O)CC(SCCN)C2=O)cc1 (stereo not shown)"
  tgt: "FBW7^ARG (RLFBW7) alone (Homo sapiens, UniProt Q969H0, R505L)"
  parameter: "Emax"
  value reported: 1.48
